# Tested on: in vivo angiogenesis, blood vessel count
# protocolDescription: reduction of blood vessel formation in vivo – HTS, in vivo study (AID 732);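 also: zebrafish embryos dosed at one day post fertilization; 0% = reference inhibitor and 100% = plate mean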
# appliedConditions: hits give low values;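 tested at 30 µM in the well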
The source made the active and inactive calls. No rule for the calls is given here.
Reported vessel count % control values follow for various compounds
measuredEndpoint: vessel count % control

| molSmiles | assayTarget | endpointResult |
| --- | --- | --- |
| CCCCOC(=O)NS(=O)(=O)c1sc(CC(C)C)cc1-c1ccc(Cn2c(CC)nc3c(C)cc(C)nc32)cc1 | in vivo angiogenesis, blood vessel count | 89% (inactive) |
| CN1CCN(C2=Nc3ccccc3Oc3ccc(Cl)cc32)CC1 | in vivo angiogenesis, blood vessel count | 123% (inactive) |
| O=C1C(SCCO)=C(SCCO)C(=O)c2ccccc21 | in vivo angiogenesis, blood vessel count | 0% (inactive) |
| C[N+](C)(C)CC#CCN1CCCC1=O | in vivo angiogenesis, blood vessel count | 99.6% (inactive) |
